- Test system: NCI/ADR-RES
- run description: NCI SRB assay
- Type: cell-based, human
- condition summary: 1.00E-5 Molar
Entries and their Growth Percent values follow.
# output: bare number, implied unit %

In the examples that follow, each entry is paired with its recorded Growth Percent.
Cc1cccc(-c2nc(Nc3ccc(C(=O)O)cc3)c3ccccc3n2)c1 84.58
COc1ccc(-c2nc(Nc3ccccc3C(=O)O)c3ccccc3n2)cc1 54.40
Cc1ccc(-c2nc(Nc3ccc(C(=O)O)cc3)c3ccccc3n2)cc1 76.55

Qu. Supply reported Growth Percent belonging to this compound: `Cc1ccc(-c2nc(Nc3ccccc3C(=O)O)c3ccccc3n2)cc1`
Ans. 5.16

Qu. Supply reported Growth Percent belonging to this compound: `Cc1ccc(-c2nc(Nc3cccc(C(=O)O)c3)c3ccccc3n2)cc1`
Ans. 89.49

Qu. Supply reported Growth Percent belonging to this compound: `Cc1cccc(-c2nc(Nc3ccccc3C(=O)O)c3ccccc3n2)c1`
Ans. 24.78
